- systemUnderTest: T1, human TL1A extracellular domain with N-terminal HIS and FLAG tag (human, UniProt O95150 72-251)
- T1 construct: whole entry named. ~70 kDa fraction purified by gel filtration
- T1 sequence: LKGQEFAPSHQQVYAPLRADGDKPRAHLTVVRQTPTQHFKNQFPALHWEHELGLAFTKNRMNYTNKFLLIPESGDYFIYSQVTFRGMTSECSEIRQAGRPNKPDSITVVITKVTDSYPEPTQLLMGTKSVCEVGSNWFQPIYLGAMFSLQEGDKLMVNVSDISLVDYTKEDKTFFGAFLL
- protocolText: SPR run 3; supernatant on Protein A; TL1A 10 ug/mL; timepoint 590

# binder, unitAbbreviation, TL1A Binding Level (Late)
data = [
    ("320-260 (antibody, human IgG1, name in Kabat numbering, V domains shown, human IgG1, lambda) VH: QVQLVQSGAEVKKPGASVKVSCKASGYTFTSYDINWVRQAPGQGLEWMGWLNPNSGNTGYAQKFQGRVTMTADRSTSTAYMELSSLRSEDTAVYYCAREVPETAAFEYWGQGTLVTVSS VL: QSVLTQPPSVSGAPGQRVTISCTSSSSDIGQGLGVHWYQQLPGTAPKLLIEGYYNRPSGVPDRFSGSKSGTSASLTITGLLPEDEGDYYCQSYDGTLSALFGGGTKLTVLG", "RU", 165),
    ("320-293 (antibody, human IgG1, name in Kabat numbering, V domains shown, human IgG1, lambda) VH: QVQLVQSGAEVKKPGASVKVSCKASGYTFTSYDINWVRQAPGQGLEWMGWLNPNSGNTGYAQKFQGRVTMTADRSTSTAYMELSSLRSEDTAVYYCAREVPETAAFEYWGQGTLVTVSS VL: QSVLTQPPSVSGAPGQRVTISCTSSSSDIGAGLGAHWYQQLPGTAPKLLIEGYYNRPSGVPDRFSGSKSGTSASLTITGLLPEDEGDYYCQSYDGTLSALFGGGTKLTVLG", "RU", 86),
    ("320-276 (antibody, human IgG1, name in Kabat numbering, V domains shown, human IgG1, lambda) VH: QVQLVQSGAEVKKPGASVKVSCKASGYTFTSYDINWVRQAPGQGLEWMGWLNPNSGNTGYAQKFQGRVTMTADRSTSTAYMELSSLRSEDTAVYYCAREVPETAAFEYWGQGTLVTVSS VL: QSVLTQPPSVSGAPGQRVTISCTSSSSDIGAGAGVHWYQQLPGTAPKLLIEGYYNRPSGVPDRFSGSKSGTSASLTITGLLPEDEGDYYCQSYDGTLSALFGGGTKLTVLG", "RU", 215),
    ("320-278 (antibody, human IgG1, V domains shown, human IgG1, lambda) VH: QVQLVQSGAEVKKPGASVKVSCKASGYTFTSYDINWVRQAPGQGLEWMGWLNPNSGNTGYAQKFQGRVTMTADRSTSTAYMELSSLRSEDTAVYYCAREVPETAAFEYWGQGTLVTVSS VL: QSVLTQPPSVSGAPGQRVTISCTSSSSDIGAGQGVHWYQQLPGTAPKLLIEGYYNRPSGVPDRFSGSKSGTSASLTITGLLPEDEGDYYCQSYDGTLSALFGGGTKLTVLG", "RU", 374),
    ("320-307 (antibody, human IgG1, name in Kabat numbering, V domains shown, human IgG1, lambda) VH: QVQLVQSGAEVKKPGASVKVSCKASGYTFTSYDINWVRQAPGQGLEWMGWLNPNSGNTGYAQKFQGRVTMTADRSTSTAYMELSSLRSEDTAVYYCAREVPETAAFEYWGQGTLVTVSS VL: QSVLTQPPSVSGAPGQRVTISCTSSSSDIGAGLGVLWYQQLPGTAPKLLIEGYYNRPSGVPDRFSGSKSGTSASLTITGLLPEDEGDYYCQSYDGTLSALFGGGTKLTVLG", "RU", 200),
]
